Recorded MIC by entry
Test system: Staphylococcus aureus
experiment: Antimicrobial activity against Staphylococcus aureus BAA-2313 incubated for 48 hrs by broth dilution method
Assay type: functional, organism-based
protocol-conditions: BAA-2313, 48 h
Give a bare numeral; the unit µg/mL is implied.

Worked examples follow.
compound	unit-text	MIC
C[C@@H]1O[C@@H](O[C@@H]2[C@@H](O)[C@H](OCCc3ccc(O)c(O)c3)O[C@H](CO)[C@H]2OC(=O)/C=C/c2ccc(O)c(O)c2)[C@H](O)[C@H](O)[C@H]1O [ACETOSIDE]	µg/mL	200
CC[C@@H](C)C(=O)c1c(O)cc(O)cc1CC(=O)O	µg/mL	200
CN[C@@H]1[C@H](O[C@H]2[C@H](O[C@H]3[C@H](O)[C@@H](O)[C@H](N=C(N)N)[C@@H](O)[C@@H]3N=C(N)N)O[C@@H](C)[C@]2(O)C=O)O[C@@H](CO)[C@H](O)[C@H]1O.CN[C@@H]1[C@H](O[C@H]2[C@H](O[C@H]3[C@H](O)[C@@H](O)[C@H](N=C(N)N)[C@@H](O)[C@@H]3N=C(N)N)O[C@@H](C)[C@]2(O)C=O)O[C@@H](CO)[C@H](O)[C@H]1O.O=S(=O)(O)O.O=S(=O)(O)O.O=S(=O)(O)O [STREPTOMYCIN SULFATE]	µg/mL	10

Kindly consider the entry below.
So what's the measured MIC for this one? "C[C@@H]1O[C@@H](O[C@@H]2[C@@H](O)[C@H](OCCc3ccc(O)c(O)c3)O[C@H](CO)[C@@H]2OC(=O)/C=C/c2ccc(O)c(O)c2)[C@H](O)[C@H](O)[C@H]1O"
200
